The following compounds are listed with their measured EC50 values.
- TGT: mouse TGR5 receptor (Mus musculus, UniProt Q80SS6)
- Construct: expressed in transfected cells; host or cells: HEK293-EBNA (293 c18, ATCC CRL10852), Hygromycin B selection
- Sequence (Q80SS6 whole entry): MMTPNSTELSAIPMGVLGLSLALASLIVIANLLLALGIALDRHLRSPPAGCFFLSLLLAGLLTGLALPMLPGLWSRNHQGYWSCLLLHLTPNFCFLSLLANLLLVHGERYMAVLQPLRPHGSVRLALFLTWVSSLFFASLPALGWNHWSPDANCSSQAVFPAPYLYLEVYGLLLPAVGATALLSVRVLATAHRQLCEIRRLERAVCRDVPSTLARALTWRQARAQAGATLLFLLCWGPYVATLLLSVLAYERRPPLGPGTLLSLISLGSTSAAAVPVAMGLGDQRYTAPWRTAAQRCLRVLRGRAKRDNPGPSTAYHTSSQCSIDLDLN
- EXPERIMENTAL PROTOCOL: Mouse TGR5 cAMP production assay (HTRF, Cisbio cAMP HiRange)
- Format: cell-based
- SETUP CONDITIONS: HEK293-EBNA cells overexpressing mouse TGR5, HTRF cAMP HiRange; coded A-D

Cc1cnccc1-c1cccc(C(C)(C)N(CCCC(=O)NCCNc2ncc(C(=O)O)cn2)S(=O)(=O)c2cccc(Cl)c2C)c1 [Compound 27AA] ... < 100 nM

Input line: Request the reported EC50 associated with Cc1cnccc1-c1cccc(C(C)N(CCCNc2c(NCS(=O)(=O)O)c(=O)c2=O)S(=O)(=O)c2cccc(Cl)c2C)c1 (centres unmarked) [Compound 32AA]
Output line: 100 to 999 nM

Input line: Check Cc1cnccc1-c1cccc(C(CCCCNC(=O)NCCS(=O)(=O)O)NS(=O)(=O)c2ccccc2C(F)(F)F)c1 (centres unmarked) [Compound 28AG] too.
Output line: 100 to 999 nM

Input line: Check CCc1cnccc1-c1cccc(C2CN(C(=O)CP(=O)(O)O)CCN2S(=O)(=O)c2cccc(Cl)c2C)c1 (centres unmarked) too.
Output line: < 100 nM

Input line: Check Cc1cnccc1-c1cccc([C@H](C)N(CCCC(=O)NS(=O)(=O)CCC(=O)O)S(=O)(=O)c2cccc(Cl)c2C)c1 [Compound 20BW] too.
Output line: < 100 nM

Input line: Check Cc1cnsc1-c1cccc([C@H](C)N(CCCC(=O)NCCS(=O)(=O)O)S(=O)(=O)c2cccc(Cl)c2C)c1 [Compound 20BP] too.
Output line: 1000 to 30000 nM

Input line: Check CCc1cnccc1-c1cccc([C@H](C)N(CCCC(=O)NCCNS(N)(=O)=O)S(=O)(=O)c2cccc(Cl)c2C)c1 [Compound 37AA] too.
Output line: < 100 nM

Input line: Check Cc1cnccc1-c1cccc([C@H](C)N(CCCC(=O)NCCS(=O)(=O)NCCC(=O)O)S(=O)(=O)c2ccccc2C(F)(F)F)c1 [Compound 20BI] too.
Output line: < 100 nM

Input line: Check Cc1c(Cl)cccc1S(=O)(=O)N1CCN(C(=O)CS(=O)(=O)O)CC1c1cccc(-c2ccncc2)c1 (centres unmarked) [Compound 49AD] too.
Output line: 100 to 999 nM

Input line: Check Cc1cnccc1-c1cccc(C(CCC#N)NS(=O)(=O)c2ccccc2C(F)(F)F)c1 (centres unmarked) too.
Output line: 100 to 999 nM

Input line: Check Cc1cnccc1-c1cccc([C@H](C)N(CCCC(=O)NCCNS(=O)(=O)CC(=O)O)S(=O)(=O)c2cccc(Cl)c2C)c1 [Compound 26AA] too.
Output line: < 100 nM

Input line: Check Cc1cnccc1-c1cccc([C@H](C)N(CCCC(=O)NCCS(=O)(=O)O)S(=O)(=O)c2cccc(Cl)c2C)c1 [Compound 21AG] too.
Output line: < 100 nM

Input line: Check Cc1cnccc1-c1cccc(C(C)(C)NS(=O)(=O)c2ccccc2[N+](=O)[O-])c1 too.
Output line: 100 to 999 nM

Input line: Check CCc1cnccc1-c1cccc([C@H](C)N(CCCC(=O)NCC[N+](C)(C)C)S(=O)(=O)c2cccc(Cl)c2C)c1 [Compound 27AE] too.
Output line: 100 to 999 nM
